System: SEM cells
Experiment: cell viability relative to DMSO control; higher = less cytotoxic
Conditions: RPMI 5 mM glucose + 10% dialyzed FBS; 48 h; 5.12 µM
RECORDED METRIC: cell viability (%)
Numbers only, in %.

Look at each compound and report its cell viability.
1. COc1cccc2c1C(=O)c1c(O)c3c(c(O)c1C2=O)C[C@@](O)(C(=O)CO)C[C@@H]3O[C@H]1C[C@H](N)[C@H](O)[C@H](C)O1
2. CNc1nc(Nc2cnn([C@H]3CCN(C4COC4)C[C@@H]3F)c2Cl)ncc1C(F)(F)F
3. O=P(O)(O)C(O)(Cn1ccnc1)P(=O)(O)O

[5.67, 32, 120]

Look at each compound and report its cell viability.
1. CCOC(=O)C(C)OC1=CC=CC2=C1\C=C/N(CC(=O)NC3=CC=C4OCCOC4=C3)C2=O (stereo not given)
2. Oc1nc(-c2ccc(C(F)(F)F)cc2)nc2c1CSCC2

[99.1, 93.6]
